Molecular target: T1, 1α PASB (HIF-1α PASB domain, 238-349) (UniProt Q16665 238-349, labelled with NT-647-NHS dye in MST)
T1 construct: range 238-349; not shown: His6 tag of vector pET28, then Met
T1 sequence (Q16665 238-349): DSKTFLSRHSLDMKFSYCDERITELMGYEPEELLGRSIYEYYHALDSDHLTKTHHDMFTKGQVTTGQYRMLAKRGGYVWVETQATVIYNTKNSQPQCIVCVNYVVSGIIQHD
Assay: MST, HIF-1α PASB domain
pKd: −log10 of the molar value. Non-standard residues stand in square brackets, D forms with d. Tyr(3-NO2) = N[C@@H](Cc1ccc(O)c([N+](=O)[O-])c1)C(=O)O; Phe(4-NO2) = N[C@@H](Cc1ccc([N+](=O)[O-])cc1)C(=O)O; Phe(4-Cl) = N[C@@H](Cc1ccc(Cl)cc1)C(=O)O; Phe(4-F) = N[C@@H](Cc1ccc(F)cc1)C(=O)O; Cha = N[C@@H](CC1CCCCC1)C(=O)O; Pal = not defined here
y means recorded pKd is 5 or above; n means it is below 5.

cyclo(CRLLI[Tyr(3-NO2)]) (SMILES CC[C@H](C)[C@@H]1NC(=O)[C@H](CC(C)C)NC(=O)[C@H](CC(C)C)NC(=O)[C@H](CCCNC(=N)N)NC(=O)[C@H](CS)NC(=O)[C@H](Cc2ccc(O)c([N+](=O)[O-])c2)NC1=O, also called CRLLIX where X = 3-NO2-Y) [CRLLI(3-NO2-Y)] : n
cyclo(CRLLI[Cha]) (also called CRLLIX where X = Cha) [CRLLI(Cha)] : y
cyclo(CRLLI[Phe(4-NO2)]) (also called CRLLIX where X = 4-NO2-F) [CRLLI(4-NO2-F)] : y
cyclo(CRLLI[Phe(4-Cl)]) (also called CRLLIX where X = 4-Cl-F) [CRLLI(4-Cl-F)] : y
cyclo(CRLLI[Pal]) (not fully specified; printed as CRLLI(Pal); reading uncertain, also called CRLLIX where X = Pal) [CRLLI(Pal)] : n
CRLLIF (cyclic peptide (cyclo-, first amino acid joined to the last), One of the 4 cyclic peptide hits of the SICLOPPS screen; made by solid phase synthesis; also called CRLLIX where X = F) [cyclo-CRLLIF (SEQ ID NO 3)] : n
cyclo(CRLLI[Phe(4-F)]) (also called CRLLIX where X = 4-F-F) [CRLLI(4-F-F)] : y
